experiment: Half life in Sprague-Dawley rat plasma at 30 mg/kg, po measured after 24 hrs by LC-MS/MS analysis; format: ADME, organism-based; conditions: in vivo
Could you please report measured t1/2 for the items listed next?
Answers are plain numbers, in h.

Some solved cases for reference:
[
  {
    "compound": "Cc1c(Br)cc(NC(=O)C(c2ccccc2)S(=O)(=O)O)cc1Br (centres undefined)",
    "value_measured": 3
  },
  {
    "compound": "O=C(CS(=O)(=O)O)Nc1ccc(N2CCOCC2)c(Br)c1",
    "value_measured": 6.8
  }
]

Quick one: give me t1/2 for each item below, same order please.
1. Cc1c(Br)cc(NC(=O)NS(=O)(=O)O)cc1Br
2. Cc1c(Br)cc(NC(=O)CS(=O)(=O)O)cc1Br

Result:
1: 2.8; 2: 3.6

Sourced from ChEMBL document CHEMBL5214960
